// each record: one item and its Ki for Kappa-type opioid receptor (Homo sapiens, UniProt P41145)

| record smiles | measured target | relation qualifier | Ki (µM) |
| --- | --- | --- | --- |
| COC(=O)[C@@H]1C[C@H](O)[C@H](O)[C@H]2[C@@]1(C)CC[C@H]1C(=O)O[C@H](c3ccoc3)C[C@]21C | Kappa-type opioid receptor (Homo sapiens, UniProt P41145) | = | 3.19 |
| COC(=O)[C@@H]1C[C@H](O)[C@H](O)[C@@H]2[C@@]3(C)C[C@@H](c4ccoc4)OC(=O)[C@H]3CC[C@]21C | Kappa-type opioid receptor (Homo sapiens, UniProt P41145) | > | 10 |
